Each recorded value in this set is attributed to PubChem BioAssay (NCI).

Test system: HCT-116 colon
Protocol description: NCI-60 one-dose screen, 48 h (100 = growth as untreated, 0 = no growth, -100 = all killed)
Condition context: 10 µM unless noted
Compounds without any hit were thinned out: in the full panel of roughly 83,000, 20% have a hit. Calls of active or inactive are those of the source. Rule for the calls: active = growth percent below 10; inactive = the rest.
Observation type: growth

COc1ccc(CN2C(=O)C(Cl)=C(Nc3cccc(C(F)(F)F)c3)C2=O)cc1    28.9% (inactive)
COc1cc(C(=O)/C=C/c2c(-c3ccc(F)cc3)nc3sc(C)cn23)cc(OC)c1OC    20.1% (inactive)
O=C1Nc2ccccc2/C1=C/c1cn(C(=O)c2c(Cl)cccc2Cl)c2ccccc12    26.1% (inactive)

Then this compound:
Input line: Could you tell me which growth is on file for `CCOC(=O)c1csc(NC(=O)COc2cccc(/C=C3\Oc4cc(OC)ccc4C3=O)c2)n1` ?
Output line: 90.7% (inactive)

----------
System: MCF7 breast
Protocol description: NCI-60 one-dose screen, 48 h (100 = growth as untreated, 0 = no growth, -100 = all killed)
Condition context: 10 µM unless noted
This is part of a sample that, as a whole, favours compounds with a hit. Of some 83,000 tested, about 20% had one in any assay.
Observation type: growth (%)
Supply the numeric figure in %, leaving out any unit text.

Example cases with answers are listed next.
CS(=O)c1cccc(-c2ccc3nc(N)n(-c4ccc(C(F)(F)F)cc4)c(=O)c3c2)c1 (stereo not drawn)    104
COC(=O)c1ccc(CSc2nnc(-c3c(C)nc4ccc(C)cn34)o2)cc1    85.9

Then this compound:
Input line: Could you tell me which growth is on file for COc1cc(C2CC(c3ccc(Nc4ccnc5cc(Cl)ccc45)cc3)=NN2C=O)cc(OC)c1OC (stereo not drawn) ?
Output line: 46.3

----------
System: MCF7 breast
Protocol description: NCI-60 one-dose screen, 48 h
Condition context: 10 µM unless noted
Compounds without any hit were thinned out: in the full panel of roughly 83,000, 20% have a hit. The source made the active and inactive calls. How the source made its calls: active means growth percent below 10; inactive means the rest.
Returns: one label drawn from yes (active), no (inactive)

Cn1c(=O)c2[nH]c(NN)nc2n(C)c1=O    no

Now let's try a different one.
Input line: What is the recorded call for this compound in the test? `Cc1cc(N2CCCC2)nc(NCc2cc(Nc3ccnc4cc(Cl)ccc34)ccc2F)n1`
Output line: yes

----------
Test system: RXF 393 renal
Protocol description: NCI-60 one-dose screen, 48 h (100 = growth as untreated, 0 = no growth, -100 = all killed)
Condition context: 10 µM unless noted
Experimental: Cells are grown in 96 well plates and exposed to the test compound for 48 hours. Compounds are tested at a single concentration, which is 10^-5 M for most compounds. The reported endpoint is percent growth (GI% or GIPRCNT), where numbers from 0 - 100% represent growth inhibition, and numbers from -100% - 0 represent cell death. For example, a value of 40 represents 60% growth inhibition. A value of 0 means no net growth occurred over the course of the experiment. […]
This is part of a sample that, as a whole, favours compounds with a hit. Of some 83,000 tested, about 20% had one in any assay.
If the reported growth equals or exceeds 90%, assign yes (1). If not, assign no (0).

Field: example entries. Status: answers known.
Cc1nn(-c2ccccc2)c(Cl)c1/C=C(/NC(=O)c1ccccc1)c1nc2ccccc2[nH]1    yes (1)
COC(=O)[C@H](CSC)N(C)C(=O)[C@@H]1CSSC[C@@H](NC(=O)c2nc3ccccc3cc2O)C(=O)NCC(=O)N1C    yes (1)
O=S(=O)(Nc1cccc(Cl)c1)c1ccc(-c2cnc(C3CC3)o2)cc1    no (0)

Input line: Hello, I need to know if `CC1(C)CC[C@]2(C(=O)N3CCOCC3)CC[C@]3(C)C(=CC[C@@H]4[C@@]5(C)CC[C@H](OC(=O)c6cccnc6)C(C)(C)[C@@H]5CC[C@]43C)[C@@H]2C1` has measured growth not below 90%. Thanks!
Output line: no (0)

Input line: Hello, I need to know if `CCOC(=O)C/C(C)=N\NC(=O)c1ccncc1` has measured growth not below 90%. Thanks!
Output line: no (0)

Input line: Hello, I need to know if `O=[N+]([O-])c1ccc(N2c3ccncc3Sc3ccncc32)cc1` has measured growth not below 90%. Thanks!
Output line: no (0)

Input line: Hello, I need to know if `COc1ccc(-c2cc(-c3ccc(Nc4nc(Nc5ccc(Cl)cc5)nc(Nc5ccc(Cl)cc5)n4)cc3)nc(N)c2C#N)cc1` has measured growth not below 90%. Thanks!
Output line: no (0)

Input line: Hello, I need to know if `COc1cc(/C=N/Nc2ncc(-c3cc4cc5c(cc4o3)OCO5)s2)cc(OC)c1OC` has measured growth not below 90%. Thanks!
Output line: no (0)

Input line: Hello, I need to know if `O=S(=O)(O)c1ccc(N/N=C/c2ccccc2Cl)cc1` has measured growth not below 90%. Thanks!
Output line: yes (1)

Input line: Hello, I need to know if CCN(CC)CCCC(C)Nc1c2ccc(Cl)cc2nc2ccc(O)cc12 (configuration not stated) has measured growth not below 90%. Thanks!
Output line: no (0)

Input line: Hello, I need to know if `Clc1cccc(Cl)c1/C=C/c1cc(/C=C/c2c(Cl)cccc2Cl)[nH]n1` has measured growth not below 90%. Thanks!
Output line: no (0)

Input line: Hello, I need to know if `Cc1ccc(/C=C/c2c(C(=O)/C=C/c3ccc(Cl)cc3)c(C)nc3ccccc23)cc1` has measured growth not below 90%. Thanks!
Output line: no (0)

Input line: Hello, I need to know if `COc1ccc(C(=O)COc2ccc(/C=C3\Oc4ccccc4C3=O)cc2)cc1` has measured growth not below 90%. Thanks!
Output line: yes (1)

----------
Recorded growth, one value per entry.
System: ACHN renal
Protocol description: NCI-60 one-dose screen, 48 h (100 = growth as untreated, 0 = no growth, -100 = all killed)
Condition context: 10 µM unless noted
Procedure: Growth inhibition of the ACHN human tumor cell line is measured as a screen for anti-cancer activity. Cells are grown in 96 well plates and exposed to the test compound for 48 hours. Compounds are tested at a single concentration, which is 10^-5 M for most compounds. The reported endpoint is percent growth (GI% or GIPRCNT), where numbers from 0 - 100% represent growth inhibition, and numbers from -100% - 0 represent cell death. For example, a value of 40 represents 60% growth inhibition. […]
The panel holds about 83,000 compounds, 20% with a hit somewhere; the sample as a whole holds those more often.
Supply the numeric figure in %, leaving out any unit text.

Example cases with answers are listed next.
CCc1ccccc1-n1c(-c2ccc(Cl)cc2)cc(-c2ccc(OC)cc2)c(C#N)c1=O    114
CN(C)CCCn1c(=O)c2ccccc2c2ccccc21    42.2
Cc1nc2c(c(N3CCCc4ccccc43)n1)CCC2    18.8
COc1ccc(-c2nc3c(c(=O)n2C(C)=O)C(c2ccc(Cl)cc2)c2sc4c(Cl)cccc4c2O3)cc1 (stereo not given)    8.98
CC(C)CC(NC(=O)CN(Cc1ccccc1)S(C)(=O)=O)C(=O)O (stereo not given)    102
N#Cc1c(-c2ccccn2)[nH]c(=S)[nH]c1=O    108

Input line: Could you tell me which growth is on file for Cc1cc(O)c(C2=NN(c3ccc(S(N)(=O)=O)cc3)C(c3ccccc3Cl)C2)cc1Cl (stereo not given) ?
Output line: 15.7

Input line: Could you tell me which growth is on file for `CN(C)c1ccc(-c2cc(-c3ccc(Nc4nc(Nc5ccc(Cl)cc5)nc(Nc5ccc(Cl)cc5)n4)cc3)no2)cc1` ?
Output line: 46.5

Input line: Could you tell me which growth is on file for `O=C(CSc1nnc(-c2ccc(NC(=O)c3cccnc3)cc2)o1)Nc1cccc(Br)c1` ?
Output line: 99.2

Input line: Could you tell me which growth is on file for `O=C(Nc1cccc(Oc2nnc(Cl)c3ccccc23)c1)Nc1ccc(Cl)c(C(F)(F)F)c1` ?
Output line: -8.47

Input line: Could you tell me which growth is on file for `COCCN(C(=O)c1ccc(F)cc1F)c1c(N)n(Cc2ccccc2)c(=O)[nH]c1=O` ?
Output line: 103

Input line: Could you tell me which growth is on file for CC1=CN2C(=O)C3C4=C(CCCC4)SC3N=C2CN1c1c(C)cccc1C (stereo not given) ?
Output line: 96.2

Input line: Could you tell me which growth is on file for `Cn1c(=O)c2[nH]c(NN)nc2n(C)c1=O` ?
Output line: 105

Input line: Could you tell me which growth is on file for `CCN(CC)CCN1CC(O)=C(c2nc(-c3ccc(Cl)cc3)cs2)C1=N` ?
Output line: 42.5

Input line: Could you tell me which growth is on file for CC1O[C@@H](OC2[C@H](OC(=O)/C=C/c3ccc(O)c(O)c3)C(COC3O[C@H](C)C(O)C(O)[C@@H]3O)O[C@@H](OCCc3ccc(O)c(O)c3)[C@H]2O)[C@@H](O)C(O)[C@H]1O (stereo not given in full) ?
Output line: 103
